Taken from the RNAGym collection of RNA variant scans (doi:10.7554/elife.80360).

B1: HDV Ribozyme (parent)
chain: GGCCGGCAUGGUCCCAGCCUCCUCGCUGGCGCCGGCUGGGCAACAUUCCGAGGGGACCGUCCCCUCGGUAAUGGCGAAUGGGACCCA

variants of: B1; test: self-cleavage, relative activity (ratio to wild type); higher = more cleavage; co-transcriptional
readout: self-cleavage
Lab note: write the figure by itself, no unit.

[
  {
    "sequence-data": "GGCCGGCAUGGUCGCAGCCUCCUCGCUGGCGCCGGCUGGGCAACAUUCCGAGGGGACCGUCCCCUCGGUAAUGACGAAUGGGACCCA [C14G G74A]",
    "self-cleavage": 0.199
  }
]

The measured self-cleavage associated with GGCCGGCAUGGUUCCAGCCUCCUCGCUGGCGCCGGCUGGGCAACAUUCCGAGGGGACCGUCCCCUCGGUAAUGGCGAAUGGGACCUA [C13U C86U] reads 1.1

So for GGCCGGCAUGUUCCCAGCCUCCUCGCUGGCGCCGGCUGGGCAACAUUCCGAGGGGACCGUCCCCUCGGUAAUGGCGAAUGGGACCCC [G11U A87C] , the logged self-cleavage turned out to be 0.415

Reported self-cleavage ( GGCCGCCCUGGUCCCAGCCUCCUCGCUGGCGCCGGCUGGGCAACAUUCCGAGGGGACCGUCCCCUCGGUAAUGGCGAAUGGGACCCA [G6C A8C] ) = 0

// recorded self-cleavage for GGCCGGCACGGUCCCAGCCUCCUCGCUGGCGCCGGCUGGUCAACAUUCCGAGGGGACCGUCCCCUCGGUAAUGGCGAAUGGGACCCA [U9C G40U] : 0.449

Please fill in: self-cleavage reported for GGCCGGCAUGGUCCCAGCCUCCUCGCUGGCGCCGGCUGGGCAACAGUCCGAGGGGACCGUCCCCUCGGUAAUGGAGAAUGGGACCCA [U46G C75A] = 0.208
